system_tested: mouse CB1 receptor (Mus musculus, UniProt P47746)
Construct: radioligand displacement assay using mouse brain plasma membranes; from tissue; host or cells: mouse brain plasma membranes
Sequence (P47746 whole entry): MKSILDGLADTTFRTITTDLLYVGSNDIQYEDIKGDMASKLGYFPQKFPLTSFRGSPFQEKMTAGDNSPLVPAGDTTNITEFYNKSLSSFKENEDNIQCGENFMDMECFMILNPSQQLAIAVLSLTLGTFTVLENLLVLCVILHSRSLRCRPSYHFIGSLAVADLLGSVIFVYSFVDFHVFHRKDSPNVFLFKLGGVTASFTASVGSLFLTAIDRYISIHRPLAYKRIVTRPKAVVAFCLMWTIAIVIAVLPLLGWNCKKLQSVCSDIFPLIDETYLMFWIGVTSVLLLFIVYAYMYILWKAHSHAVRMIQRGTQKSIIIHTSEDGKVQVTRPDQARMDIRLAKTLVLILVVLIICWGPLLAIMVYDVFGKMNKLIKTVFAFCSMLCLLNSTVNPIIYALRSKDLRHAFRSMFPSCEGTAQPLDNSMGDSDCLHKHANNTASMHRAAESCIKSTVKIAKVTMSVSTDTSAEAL
test_protocol: radioligand displacement assay using mouse brain plasma membranes and 3H-CP55540
Assay type: binding

[
  {
    "molecule": "C/C(N)=N/C(=N/S(=O)(=O)N1CCC(C(F)(F)F)CC1)N1CC(c2ccccc2)C(c2ccc(Cl)cc2)=N1 (centres unmarked)",
    "system_tested": "mouse CB1 receptor (Mus musculus, UniProt P47746)",
    "Ki / nM": 3
  },
  {
    "molecule": "CC(C)(C)/C(N)=N/C(=N/S(=O)(=O)N1CCC(F)(F)CC1)N1CC(c2ccccc2)C(c2ccc(Cl)cc2)=N1 (centres unmarked)",
    "system_tested": "mouse CB1 receptor (Mus musculus, UniProt P47746)",
    "Ki / nM": 21
  }
]

Cited source for all entries: patent US10329259B2
